experiment: solubility of carisbamate in water; type: physicochemical; conditions: described as slightly soluble
Endpoint: solubility

Exercise: Which solubility reading was recorded for the molecule NC(=O)OC[C@@H](O)c1ccccc1Cl [Carisbamate] ?
Key: > 2000 µg/mL
